Reference source for all entries: patent US20240309059A1

test: solubility to 50 mM HEPES buffer solution (pH 8.0); format: physicochemical; conditions: room temperature
Ends that are not written are not given here.
quantity measured: solubility thermodynamic at 30 min (µM)
Unit µM implied. Number only.

sequence chain | unit label | solubility thermodynamic at 30 min
DKLWILQKIYEIMVRLDEEGHGEASLMVSDLIYEFMKRD [Ce172] | µM | 1100
DKLWILQKIYEIMQRLDEEGHGEASLMVSDLIYEFMKRD [Ce173] | µM | 1500
DKEWILYKIYEIMVRLDEEGHGEASLMVSDLIYEFMKRD [Ce149] | µM | 1300
DKEWILYKIYEIMQRLDEEGHGEASLMVSDLIYEFMKRD [Ce174] | µM | 1600

Okay, next one:
// recorded solubility thermodynamic at 30 min for DKEWILQKIYEIMQRLDEEGHGEASLMVSDLIYEFMKRD [Ce113] : 2500

* * *

test: solubility to ultra-pure water; assay type: physicochemical; conditions: room temperature
Ends that are not written are not given here.
quantity measured: solubility (mM)
Unit mM implied. Number only.

// recorded solubility for DKEWILQKIYEIMRRLDEEGHGEASLRVSDLIYEFMKKD [Ce41] : 6.1

* * *

Experiment: solubility to ultra-pure water
Type: physicochemical
Conditions: room temperature
Description: In this Example, Ce4, Ce9, Ce41 and Ce59 developed in the aforementioned Examples were each dissolved in ultra-pure water and the degrees of solubility of them to ultra-pure water were computationally obtained. Ce4, Ce9, Ce41 and Ce59 having the aforementioned amino acid sequences were chemically synthesized and each dissolved in ultra-pure water. […]
Ends that are not written are not given here.
As shown below, each of these sequences has a reported solubility thermodynamic at 30 min value.
Unit mM implied. Number only.

sequence chain | solubility thermodynamic at 30 min / mM
DKEWILQKIYEIMRRLDEEGHAEASMRVSDLIYEFMKKD [Ce9] | 5.2
DKEWILQKIYEIMRKLDEDGHAEASMRVSDLIYEFMKKD [Ce4] | 4.4

Okay, next one:
// recorded solubility thermodynamic at 30 min for DKEWILQKIYEIMRRLDEEGHGEASLRVSDLIYEFMKRD [Ce59] : 6.1
